Biological target: Grb2 SH2 (UniProt P62993)
Sequence (P62993 whole entry, looked up, the tested form may be a part): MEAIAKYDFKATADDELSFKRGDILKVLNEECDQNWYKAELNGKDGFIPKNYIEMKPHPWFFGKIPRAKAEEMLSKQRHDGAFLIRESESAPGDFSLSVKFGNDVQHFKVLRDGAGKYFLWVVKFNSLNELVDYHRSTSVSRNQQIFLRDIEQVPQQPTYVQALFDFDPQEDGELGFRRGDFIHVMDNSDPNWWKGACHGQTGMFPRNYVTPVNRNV
Test: SH2 binding enrichment of the phosphorylated peptide, bacterial display (enrichment ratio); higher = better substrate or ligand; peptides without Tyr show the background;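 note: peptide library displayed on the E. coli surface as eCPX fusions, selected cells deep-sequenced, score is each peptide's frequency after selection divided by its frequency in the input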
REPORTED_ENDPOINT: SH2 binding enrichment
Keep the answer to the number alone.

Measured SH2 binding enrichment, SFLFHYADDSF [RAB3C_Y50_R49H] : 1.09

Query EQKKYYNAVKK [SCN5A_Y1495_M1498V] yields SH2 binding enrichment of 1.16

SH2 binding enrichment for SHNKYYMLVAH [MFSD8_Y134_R139H] is 1.69

SH2 binding enrichment recorded for this sequence, KINKMYSDRAM , is 0.632

Per the record, KDHPDYKYPPR [SOX10_Y171_Q174P] has SH2 binding enrichment of 1.08

Query GACGGYCSVLG [RAB18_Y202] yields SH2 binding enrichment of 0.875

The recorded SH2 binding enrichment for entry QGIPRYHSQSP [FOXF1_Y331] equals 0.733
